FYI, the data here is from ChEMBL document CHEMBL1201862.

Tested on: M14
experimental.protocol: NCI tumour cell line growth inhibition, 48 h
The source made the active and inactive calls. Cut-off read from the data, not from the text of the source: active = GI50 up to about 1.1 µM and inactive = higher.
Catalogue of GI50 readings, one per entry.
assay.readout: GI50

| molecule | reported.measurement |
| --- | --- |
| CC1(C)SC2C(C(=O)O)N=C(Cc3ccccc3)N2C1C(=O)O (centres undefined) | 37.2 µM (inactive) |
| Cc1cc(Cl)nc2nc(Cl)c(N)cc12 | 8.67 µM (inactive) |
| Cc1nc2c(O)cc3c4c(n(Cc5ccccc5)c3c2nc1C)C(=O)CCC4 | 53.2 µM (inactive) |
| NC(=O)NNC(=O)c1nc[nH]c1[N+](=O)[O-] | > 100 µM (inactive) |
| c1cncc(-c2cc(-c3cc(-c4cccnc4)[nH]n3)n[nH]2)c1 | > 100 µM (inactive) |
| COC(=O)C(COC(=O)/C=C/c1ccc(OC(C)=O)c(OC(C)=O)c1)OC(=O)/C=C/c1ccc(OC(C)=O)c(OC(C)=O)c1 (centres undefined) | 7.8 µM (inactive) |
| O=C1OCC(O)=C1C(c1ccc(Cl)cc1)c1cc2c(cc1O)OCO2 (centres undefined) | > 100 µM (inactive) |
| O=CN1CCN(C(=O)c2ccc(Cl)cc2)C1=S | 14.6 µM (inactive) |
| O=C(O)C(O)C(O)C(O)C(O)c1nc2ccccc2s1 (centres undefined) | 17.8 µM (inactive) |
